Source: the RNAGym collection of RNA variant scans (doi:10.1073/pnas.2313332121)

B1: TPR 5TU (parent)
chain: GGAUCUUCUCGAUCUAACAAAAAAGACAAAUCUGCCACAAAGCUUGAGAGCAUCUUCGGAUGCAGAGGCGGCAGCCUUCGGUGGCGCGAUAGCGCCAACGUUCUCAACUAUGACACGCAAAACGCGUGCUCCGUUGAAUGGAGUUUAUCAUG

Variants of: B1
experimentalDetails: polymerase ribozyme fitness, log enrichment relative to wild type (log ratio); higher = more active; in vitro selection for triplet polymerase activity
Variants at the floor of the assay were thinned out.
Listed below: polymerase ribozyme fitness (log ratio) values for each entry.
valueKind: polymerase ribozyme fitness (log ratio)

mutantdesignation="G42U U56A A120U A142C" relationaloperator=≤ observed=-4.2
mutantdesignation="A12U C54A C95U" relationaloperator== observed=-1.84
mutantdesignation="A3C U4A U56G C57U C132A" relationaloperator== observed=-4.08
mutantdesignation="A22G G50U U56G G58U C76U A122G" relationaloperator== observed=-4.16
mutantdesignation="C105U U109G G133C" relationaloperator== observed=-1.81
mutantdesignation=G74A relationaloperator== observed=-2.81
mutantdesignation="U61A G140A" relationaloperator=≤ observed=-4.2
mutantdesignation="U9A A21U U55A C85G G112C U145A" relationaloperator=≤ observed=-4.2
mutantdesignation="A20U U101A" relationaloperator== observed=-2.4
mutantdesignation="C85G G141C" relationaloperator== observed=-3.06
mutantdesignation="C51G U53C G67C G86U U101G A138U" relationaloperator=≤ observed=-4.2
mutantdesignation="C69G A119U" relationaloperator== observed=-1.72
mutantdesignation="A49G G83U" relationaloperator== observed=-1.22
mutantdesignation="C35G U55A G94A U101G C131U" relationaloperator=≤ observed=-4.2
mutantdesignation="C93A A142C" relationaloperator== observed=-1.78
mutantdesignation="C85U U127A" relationaloperator== observed=-3.36
mutantdesignation="G50A C87U A97U" relationaloperator== observed=-3.34
mutantdesignation="U56A C69A G84A" relationaloperator== observed=-1.63
mutantdesignation="G25U C85G C132G" relationaloperator=≤ observed=-4.2
mutantdesignation="C93A C96A" relationaloperator== observed=-3.78
mutantdesignation="U13A A52G U82A" relationaloperator== observed=-0.721
mutantdesignation="C32G A37C G140C" relationaloperator=≤ observed=-4.2
mutantdesignation="A19U C95U" relationaloperator== observed=-0.543
mutantdesignation="A19U A40G G124A" relationaloperator== observed=-4.11
mutantdesignation="U53A C75U" relationaloperator== observed=-1.34
mutantdesignation="A3G G11C C87A A91U A137G" relationaloperator=≤ observed=-4.2
mutantdesignation="A40C C87U" relationaloperator== observed=-0.91
mutantdesignation="U55A G84U A106C U144C U146C" relationaloperator== observed=-4.16
mutantdesignation="A110C G112A G140C A142U" relationaloperator== observed=-4.12
mutantdesignation="A91U A142U" relationaloperator== observed=-3.67
mutantdesignation="A20C U82A A150G" relationaloperator== observed=-0.662
mutantdesignation="A30G A121G" relationaloperator== observed=-3.36
mutantdesignation="A21C A24G C38U G83A C99U" relationaloperator=≤ observed=-4.2
mutantdesignation="G83U U151A" relationaloperator=≤ observed=-4.2
mutantdesignation="A20U U82G C93U" relationaloperator== observed=-2.36
mutantdesignation="A16G A41G U53G A73U G88A C125U G133U" relationaloperator=≤ observed=-4.2
mutantdesignation="C93U C118A C125A U139C" relationaloperator== observed=-4.16
mutantdesignation="U6G G83A" relationaloperator== observed=-0.0531
mutantdesignation="G58U A97G A98G G117U U146G" relationaloperator== observed=-0.542
mutantdesignation="C75A C95G C96U" relationaloperator=≤ observed=-4.2
mutantdesignation="A16C C85U A106U G126A" relationaloperator== observed=-3.28
mutantdesignation="G92U U104G C132U" relationaloperator== observed=-2.5
mutantdesignation="C5G C14G A41C G48C G126A G140A" relationaloperator=≤ observed=-4.2
mutantdesignation="G50A G71C U82G C85G" relationaloperator=≤ observed=-4.2
mutantdesignation="A26C U134G" relationaloperator== observed=-4.1
mutantdesignation="A22C A23G C54U" relationaloperator=≤ observed=-4.2
mutantdesignation="A41G A52G C87U U144G U148G" relationaloperator== observed=-3.95
mutantdesignation="G59A A73G U90C C93G C131U U144G" relationaloperator=≤ observed=-4.2
mutantdesignation="A89C C96U A97C C99U" relationaloperator== observed=-3.09
mutantdesignation="A21U U56A G81U C85G A107U G141U U144G" relationaloperator=≤ observed=-4.2
mutantdesignation="G83U C87U A89C C123A C125U" relationaloperator== observed=-1.33
mutantdesignation="C18G A19C G88A G92U C95U U134A" relationaloperator== observed=-4.03
mutantdesignation="A64G G86U" relationaloperator=≤ observed=-4.2
mutantdesignation="G11A A39U A40C G100C" relationaloperator=≤ observed=-4.2
mutantdesignation="G50A A64C C95G C114U" relationaloperator=≤ observed=-4.2
mutantdesignation="C69G U101G G133U" relationaloperator== observed=-3.95
mutantdesignation="C57U G58C A60U G88A C99A" relationaloperator=≤ observed=-4.2
mutantdesignation="G42A A52G U61G G86A C114A" relationaloperator== observed=-3.88
mutantdesignation="G25U G42A C87G" relationaloperator=≤ observed=-4.2
mutantdesignation="C54G C57A G74A A91C C95U C132A" relationaloperator=≤ observed=-4.2
mutantdesignation="G58A G94C" relationaloperator== observed=-0.674
mutantdesignation="C99U A119C C125G U134G" relationaloperator== observed=-3.27
mutantdesignation="A47C C87U" relationaloperator== observed=-0.109
mutantdesignation="C93U C149G" relationaloperator== observed=-4.08
mutantdesignation="A28U U61C G68A G86A A89U G117C" relationaloperator=≤ observed=-4.2
mutantdesignation="A23U G59U C93U" relationaloperator=≤ observed=-4.2
mutantdesignation="A24U U102C A120G A121C" relationaloperator== observed=-2.13
mutantdesignation="G59C G74A G80C U127G A142G" relationaloperator=≤ observed=-4.2
mutantdesignation="C51U G94A" relationaloperator== observed=-1.11
mutantdesignation="C18G A29C C35A A89U G128A U144G" relationaloperator=≤ observed=-4.2
mutantdesignation="G25U U55A C72G C93G G140A" relationaloperator=≤ observed=-4.2
mutantdesignation="C8U U33A A37C G50A A60U C72A G86A U90A A138G U151G" relationaloperator=≤ observed=-4.2
mutantdesignation="C14G U31G" relationaloperator== observed=-2.12
mutantdesignation="U9A U31G U53G G88A G126U A150C" relationaloperator=≤ observed=-4.2
mutantdesignation="U55G U127C" relationaloperator== observed=-1.36
mutantdesignation="A52C C85A" relationaloperator== observed=-3.22
mutantdesignation="A89U A142C U146C A150U" relationaloperator== observed=-3.99
mutantdesignation="A49G C93G U102G A106G" relationaloperator=≤ observed=-4.2
mutantdesignation="G11C A20U G86C C99G G136C U145G A147C" relationaloperator=≤ observed=-4.2
mutantdesignation="C93U A137C" relationaloperator== observed=-4.07
mutantdesignation="A29C A89G C95G U139C G140A G141U A142C" relationaloperator=≤ observed=-4.2
mutantdesignation="A49U A91G" relationaloperator=≤ observed=-4.2
mutantdesignation="C36U C85U G133A U135C" relationaloperator== observed=-4.18
mutantdesignation="C35U A91G" relationaloperator== observed=-2.83
mutantdesignation="A16U A52G U104G U134G" relationaloperator=≤ observed=-4.2
mutantdesignation="U31C G84A" relationaloperator== observed=0.831
mutantdesignation="C35A G126A" relationaloperator== observed=-3.51
mutantdesignation="A16G U33G G81A C87G G100A" relationaloperator=≤ observed=-4.2
mutantdesignation="A3C G70C C87G C96G A107G U146G" relationaloperator=≤ observed=-4.2
mutantdesignation="C43U A52U C85G G133U" relationaloperator=≤ observed=-4.2
mutantdesignation="A47C C69U G80C" relationaloperator=≤ observed=-4.2
